# pKi values compiled below
- TARGET ENTITY: full-length recombinant rat vitamin D receptor (Rattus norvegicus, UniProt P13053)
- Sequence (P13053 whole entry): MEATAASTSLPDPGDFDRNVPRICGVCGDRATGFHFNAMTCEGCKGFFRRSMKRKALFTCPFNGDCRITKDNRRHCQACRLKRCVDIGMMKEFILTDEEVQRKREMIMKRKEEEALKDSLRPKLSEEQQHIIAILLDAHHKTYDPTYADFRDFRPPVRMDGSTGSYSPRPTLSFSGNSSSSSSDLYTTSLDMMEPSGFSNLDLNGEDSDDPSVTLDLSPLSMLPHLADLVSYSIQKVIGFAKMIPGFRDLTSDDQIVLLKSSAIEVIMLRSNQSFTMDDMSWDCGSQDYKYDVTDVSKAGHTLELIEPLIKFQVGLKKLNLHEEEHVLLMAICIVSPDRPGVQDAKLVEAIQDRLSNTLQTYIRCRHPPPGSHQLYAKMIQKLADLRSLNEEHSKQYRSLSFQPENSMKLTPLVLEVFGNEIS
- PROCEDURE SUMMARY: competition with [3H]-1,25(OH)2D3 for binding to vitamin D receptor
- TEST CONTEXT: FIG. 2, read-out: Ki, competition with [3H]-1,25(OH)2D3 for VDR binding
Please express pKi as -log10 of the molar concentration.

Take a look at these entries with their results.
COMPOUND	TEST RESULT
C[C@H](CCCC(C)(C)O)[C@H]1CC[C@H]2/C(=C/C=C3C[C@@H](O)C[C@H](O)C3)CCC[C@]12C [1,25(OH)2 19-nor-D3, 1α,25-dihydroxy-19-nor-vitamin D3, reference compound]	9.70
C=C1[C@H](O)CC(=C/C=C2\CCC[C@]3(C)[C@@H](CC)CC[C@@H]23)C[C@H]1O	9.52
C=C1C(O)CC(=CC=C2CCCC3(C)C2CCC3C(C)C)CC1O (stereo not shown)	9.52

Please examine the following record next.
Determine its reported pKi: C=C1[C@H](O)CC(=C/C=C2\CCC[C@]3(C)[C@@H]([C@@H](C)CC)CC[C@@H]23)C[C@H]1O
9.22
